- Test System: NADPH oxidase (NOX) (Homo sapiens)
- Format: cell-based
- Recorded Conditions: ROS production triggered with fMLP (2 μM), 1-50 μM test drug, peripheral human neutrophils; mean ± S.E.M.; read-out: IC50 (μM) in NOX fMLP-induced NOX activation in PMN
Metric: IC50 (µM)

> print(dat)
                                   compound  reported.value
1  CC(C)[C@@H](C)/C=C/[C@@H](C)[C@H]1CC[C@H]2C3=CC[C@H]4C[C@@H](O)CC[C@]4(C)C3=CC[C@]12C            27.9
2  C=C(CC[C@@H](C)[C@H]1CC[C@H]2C3=C(C(=O)C[C@]12C)[C@@]1(C)CCC(=O)[C@@H](C)[C@@H]1CC3=O)C(C)C(=O)O (stereo partly shown)            22.1
3  C=C(CC[C@@H](C)[C@H]1CC[C@H]2C3=C(C(=O)C[C@]12C)[C@@]1(C)CCC(=O)[C@@H](C)[C@@H]1CC3=O)C(C)C(=O)OC (stereo partly shown)             8.4
4  C=C(CC[C@@H](C)[C@H]1CC[C@H]2C3=C(C(=O)C[C@]12C)[C@@]1(C)CCC(=O)[C@@H](C)[C@@H]1C[C@@H]3O)[C@H](C)C(=O)O            22.6
